The reported measurements were obtained from the supplement of paper PMC10065799.

# system.name: Grb2 SH2 (UniProt P62993)
# test.summary: SH2 binding enrichment of the phosphorylated peptide, bacterial display (enrichment ratio); higher = better substrate or ligand; peptides without Tyr show the background
readout.name: SH2 binding enrichment

Past entries and their recorded results:
residue.codes	SH2 binding enrichment
RAEAQYLLVSN [LRIG1_Y1054]	0.884
FYLGAYDRFLP [SLC22A5_Y486_V481F]	1.18
LREKVYVSLEA [RXRA_Y397_A398V]	0.774
FFDANYDGKEF [MAPRE2_Y162_YF]	0.68

I: SLNEVYTKNKT [MSH2_Y563_E562V]
II: PTTKTYFPHFF [HBA1_Y43_D48Y_YF]
Query: Pick one: I or II . Which one has the lower reported SH2 binding enrichment? Identify your pick by its label.
Response: I

----------
# system.name: EPHB2 (UniProt P29323)
# Sequence (P29323 whole entry, looked up): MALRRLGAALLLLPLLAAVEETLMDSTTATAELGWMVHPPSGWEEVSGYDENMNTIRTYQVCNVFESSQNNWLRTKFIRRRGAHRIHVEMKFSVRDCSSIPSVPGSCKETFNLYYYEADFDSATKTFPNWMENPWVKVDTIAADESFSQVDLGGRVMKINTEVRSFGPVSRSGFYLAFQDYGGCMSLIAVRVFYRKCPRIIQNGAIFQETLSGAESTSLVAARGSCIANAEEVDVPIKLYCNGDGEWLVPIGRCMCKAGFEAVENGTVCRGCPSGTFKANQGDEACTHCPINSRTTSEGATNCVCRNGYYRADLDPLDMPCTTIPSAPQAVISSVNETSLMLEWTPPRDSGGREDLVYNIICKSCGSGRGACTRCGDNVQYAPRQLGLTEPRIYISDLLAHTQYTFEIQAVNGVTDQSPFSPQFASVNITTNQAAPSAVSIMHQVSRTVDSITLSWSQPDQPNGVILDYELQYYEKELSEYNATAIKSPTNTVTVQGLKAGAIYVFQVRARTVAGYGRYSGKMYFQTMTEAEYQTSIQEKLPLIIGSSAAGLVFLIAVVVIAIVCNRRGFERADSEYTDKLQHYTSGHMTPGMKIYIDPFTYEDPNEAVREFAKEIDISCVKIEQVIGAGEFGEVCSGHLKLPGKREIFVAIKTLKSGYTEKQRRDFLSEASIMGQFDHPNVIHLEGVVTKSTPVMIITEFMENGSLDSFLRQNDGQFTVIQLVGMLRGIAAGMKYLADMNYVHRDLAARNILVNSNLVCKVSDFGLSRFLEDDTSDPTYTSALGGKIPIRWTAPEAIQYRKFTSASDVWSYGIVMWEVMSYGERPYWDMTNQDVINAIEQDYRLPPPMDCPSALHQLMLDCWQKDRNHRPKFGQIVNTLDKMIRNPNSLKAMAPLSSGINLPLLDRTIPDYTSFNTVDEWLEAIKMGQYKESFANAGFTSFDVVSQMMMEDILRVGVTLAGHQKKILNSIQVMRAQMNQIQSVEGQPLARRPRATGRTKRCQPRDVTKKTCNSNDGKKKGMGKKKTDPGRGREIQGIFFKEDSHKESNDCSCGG
# test.summary: phosphorylation enrichment, bacterial display (enrichment ratio); higher = better substrate or ligand; peptides without Tyr show the background
Quick reference: phosphorylation enrichment of the listed items.
Could you keep your reply to the number by itself?

Observe how each entry below is paired with its result.
residue.codes	observed.result
GARGRYIMGGP [TNK1_Y277_V278I]	0.462
RRGTRYMFSRP [RPL21_Y13]	0.768
KGEDFYCVTFH [FHL1_Y149_C153Y_YF]	0.891
GADDSYFTARS [ZAP70_Y492_YF]	0.44
AGIKAYQSCLQ [ADGRA2_Y377_T375K]	0.55

// phosphorylation enrichment value for TCFDKYTGNTF [FN1_Y101_YF] : 0.772

Summary for this sequence, SYCYRYRCAAW [SUMF1_Y344_R349W] : phosphorylation enrichment is 0.453

Value of phosphorylation enrichment reported for the sequence DLDLTYIYPNI [PTEN_Y27] is 0.961

// phosphorylation enrichment lookup, sequence = VTAALYGRLYE [BTD_Y536] , result: 1.43

The value of phosphorylation enrichment measured for the sequence CGQDPYIRELG [UROS_Y19] turned out to be 0.53

Short answer for QKNVSYVSTVS [TASOR_Y1043] : phosphorylation enrichment was 1.75

The reported value for CEHRGSLFLAI [TEK_Y897_Y897S_YF] in terms of phosphorylation enrichment is 0.564

----------
phosphorylation enrichment overview
# system.name: FGFR3 (UniProt P22607)
# Sequence (P22607 whole entry, looked up): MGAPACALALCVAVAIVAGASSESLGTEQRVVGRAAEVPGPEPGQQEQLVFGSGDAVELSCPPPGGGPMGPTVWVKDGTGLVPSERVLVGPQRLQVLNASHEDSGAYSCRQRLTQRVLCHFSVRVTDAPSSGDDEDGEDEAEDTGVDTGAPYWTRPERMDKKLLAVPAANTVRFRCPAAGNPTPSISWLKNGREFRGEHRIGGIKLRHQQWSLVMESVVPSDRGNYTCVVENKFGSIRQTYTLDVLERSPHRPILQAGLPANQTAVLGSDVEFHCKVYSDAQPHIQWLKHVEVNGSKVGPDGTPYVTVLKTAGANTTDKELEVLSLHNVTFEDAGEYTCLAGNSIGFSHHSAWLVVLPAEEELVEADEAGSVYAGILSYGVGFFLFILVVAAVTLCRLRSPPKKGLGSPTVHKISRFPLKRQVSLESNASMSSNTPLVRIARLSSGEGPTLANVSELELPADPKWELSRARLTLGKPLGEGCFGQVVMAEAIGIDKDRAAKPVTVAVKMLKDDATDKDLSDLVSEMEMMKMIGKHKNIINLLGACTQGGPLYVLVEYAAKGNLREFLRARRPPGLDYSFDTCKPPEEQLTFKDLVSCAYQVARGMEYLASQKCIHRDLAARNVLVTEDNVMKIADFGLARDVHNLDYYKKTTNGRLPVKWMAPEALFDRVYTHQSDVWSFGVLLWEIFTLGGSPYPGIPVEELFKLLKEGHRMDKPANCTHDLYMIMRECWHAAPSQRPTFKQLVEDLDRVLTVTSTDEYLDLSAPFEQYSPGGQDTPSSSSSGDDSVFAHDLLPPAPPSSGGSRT
# test.summary: phosphorylation enrichment, bacterial display (enrichment ratio); higher = better substrate or ligand; peptides without Tyr show the background
API doc: respond with a numeric literal and nothing else, no unit.

Guide cases for phosphorylation enrichment, answers given:
residue.codes	phosphorylation enrichment
FIGCIYLYLTK [GARS1_Y414_R412C]	0.79
ILDEAYVMAIV [EGFR_Y764_S768I]	1.02
ENRKYYKDLKE [PURA_Y156_M157K]	0.457
HFVDEYDPTIE [KRAS_Y32]	0.888

phosphorylation enrichment reading for VTAALYGRLYE [BTD_Y536] : 0.724

What the record says about DDFDLYGGEKF [PTPN11_Y66_Y62D_YF] : phosphorylation enrichment is 0.727

The value of phosphorylation enrichment measured for the sequence LSCLAYSGKDA [FXN_Y205_S202C] turned out to be 0.976

QTEAEYRFIFM [PTPN11_Y511_Q510E_YF] has a reported phosphorylation enrichment of 1.42

The sequence identified as PNQRRYVFFFS [PTEN_Y174_S170N_YF] registered its phosphorylation enrichment at 1.25

Looking up LSSLAYSGKDA [FXN_Y205] , I see its phosphorylation enrichment listed as 0.671

GHEFIYVDRMQ [PDGFRB_Y581_P584R_YF] has a reported phosphorylation enrichment of 0.624

The reported phosphorylation enrichment of the sequence QTEAQYRFIYM [PTPN11_Y511] was 1.54

The sequence listed as GGYTCYSDGKK [PROS1_Y266_C267S] shows phosphorylation enrichment equal to 0.826

# phosphorylation enrichment of TVHCDYLNIPH [TAF1L_Y1385] = 3.97

Per the records, this sequence ( KDFETYQSFQN [CTNND2_Y1157_P1159S_YF] ) has phosphorylation enrichment equal to 0.691

Recorded result, FLLRVYSIFSK [SGCE_Y38_T36R] , phosphorylation enrichment: 1.28

Value of phosphorylation enrichment reported for the sequence PELINYHQHFS [BTK_Y361_N365Y_YF] is 0.799

get_value(item= CTTIHYNYMWN [TP53_Y234_C238W] , readout=phosphorylation enrichment) returns 0.976

Entry WLQKLYNNFVN [MYO5C_Y526] — recorded phosphorylation enrichment = 0.774

Summary for this sequence, LEVPLYKNGVK [CPS1_Y1069_A1065E] : phosphorylation enrichment is 1.11

Input VEDHDYEGGIG [TKT_Y564_Y563D] . Output phosphorylation enrichment: 0.874

Lab note: measured phosphorylation enrichment of RGLQVYHRRNA [LRP2_Y2010] was 0.889
